- Test system: Staphylococcus epidermidis
- test: Compound was tested for reduction in the production of lipid II relative to the control(judged by intensity) on the film, inhibition of either MraY or MurG at a dose of 100 ug/mL
- Type: functional
The source made the active and inactive calls. The calls are words filed in the database; no cut-off is given here.
value_type: Inhibitory activity

INSERT INTO measurements (molecule, result) VALUES
  ('CO[C@H]1[C@H](OC([C@H]2O[C@@H](n3ccc(=O)[nH]c3=O)[C@H](O)[C@@H]2O)[C@@H](C(=O)O)N(CCCCCCCCCCCCN2CCOCC2)CCCNC(=O)[C@@H](NC(=O)[C@@H](NC(=O)N[C@H](C(=O)O)C(C)C)[C@@H]2CCN=C(N)N2)[C@@H](O)C(C)C)O[C@H](CN)[C@H]1O (stereo not given in full)', 'Active'),
  ('CO[C@H]1[C@H](OC(C2C(=O)N(c3ccc(F)cc3)C(=O)N2CCCNC(=O)[C@@H](NC(=O)[C@@H](NC(=O)N[C@H](C(=O)O)C(C)C)[C@@H]2CCN=C(N)N2)[C@@H](O)C(C)C)[C@H]2O[C@@H](n3ccc(=O)[nH]c3=O)[C@H](O)[C@@H]2O)O[C@H](CN)[C@H]1O (stereo not given in full)', 'Active'),
  ('CO[C@H]1[C@H](OC([C@H](NCCCNC(=O)[C@@H](NC(=O)[C@@H](NC(=O)N[C@H](C(=O)O)C(C)C)[C@@H]2CCN=C(N)N2)[C@@H](O)C(C)C)C(=O)O)[C@H]2O[C@@H](n3ccc(=O)[nH]c3=O)[C@H](O)[C@@H]2O)O[C@H](CN)[C@H]1O (stereo not given in full)', 'Active'),
  ('CCCCCN1C(=O)C(C(O[C@@H]2O[C@H](CN)[C@@H](O)[C@H]2OC)[C@H]2O[C@@H](n3ccc(=O)[nH]c3=O)[C@H](O)[C@@H]2O)N(CCCNC(=O)[C@@H](NC(=O)[C@@H](NC(=O)N[C@H](C(=O)O)C(C)C)[C@@H]2CCN=C(N)N2)[C@@H](O)C(C)C)C1=O (stereo not given in full)', 'Active'),
  ('CCCCCN(CCCNC(=O)[C@@H](NC(=O)[C@@H](NC(=O)N[C@H](C(=O)O)C(C)C)[C@@H]1CCN=C(N)N1)[C@@H](O)C(C)C)[C@H](C(=O)O)C(O[C@@H]1O[C@H](CN)[C@@H](O)[C@H]1OC)[C@H]1O[C@@H](n2ccc(=O)[nH]c2=O)[C@H](O)[C@@H]1O (stereo not given in full)', 'Active');
